// values below are reported melting point

Some solved cases for reference:
Cc1cc(C2=NN=C(C=O)Cc3cc4c(cc32)OCO4)ccc1[N+](=O)[O-] = 188 to 191 °C
CCC(=O)N1N=C(c2ccc([N+](=O)[O-])c(C)c2)c2cc3c(cc2CC1C)OCO3 (racemic) = 172 to 175 °C
CC1=Cc2cc3c(cc2C(c2ccc([N+](=O)[O-])c(C)c2)=NN1C(=O)NC1CC1)OCO3 = 198 to 202 °C

melting point reported for this compound Cc1cc(C2=NN=C(C#N)Cc3cc4c(cc32)OCO4)ccc1N : 252 to 255 °C

The compound listed as Cc1cc(C2=NNC(C)(C#N)Cc3cc4c(cc32)OCO4)ccc1[N+](=O)[O-] (racemic) shows melting point equal to 148 to 151 °C

Data point: Cc1cc(C2=NN=C(C(=O)O)Cc3cc4c(cc32)OCO4)ccc1[N+](=O)[O-] ; melting point = 185 to 186 °C

// melting point lookup, compound = CC(=O)N1N=C(c2ccc([N+](=O)[O-])c(C)c2)c2cc3c(cc2CC1C)OCO3 (racemic) , result: 178 to 181 °C

====

melting point reference

The cases that follow already have their melting point on record.
CC(=O)N1N=C(c2ccc(N)c(C)c2)c2cc3c(cc2C=C1C)OCO3 = 222 to 223 °C
Cc1cc(C2=NN=C(C=NNC(N)=O)Cc3cc4c(cc32)OCO4)ccc1[N+](=O)[O-] = 260 to 264 °C
CC1=NN=C(c2ccc([N+](=O)[O-])c(C)c2)c2cc3c(cc2C1)OCO3 = 189 to 194 °C
CC(=O)N1N=C(c2ccc(N)c(C)c2)c2cc3c(cc2CC1C)OCO3 (racemic) = 121 to 123 °C
CCC(=O)N1N=C(c2ccc([N+](=O)[O-])c(C)c2)c2cc3c(cc2CC1(C)C#N)OCO3 (racemic) = 191 to 193 °C

Entry CC(=O)N1N=C(c2ccc([N+](=O)[O-])c(C)c2)c2cc3c(cc2CC1C(N)=O)OCO3 (racemic) ; melting point = 157 to 161 °C

melting point reported for this compound Cc1cc(C2=NN(C(=O)NC3CC3)C(C)Cc3cc4c(cc32)OCO4)ccc1N (racemic) : 179 to 181 °C

According to the records, this compound CC(=O)N1N=C(c2ccc([N+](=O)[O-])c(C)c2)c2cc3c(cc2CC1(C)C#N)OCO3 (racemic) displays melting point of 253 to 255 °C
